system: Raji; test: Antiproliferative activity against human Raji cells after 72 hrs by MTT assay; format: functional, cell-based
measured_endpoint: IC50 (µM)

I. CC[C@H](Nc1ncnc2[nH]cnc12)c1nc2cccc(F)c2c(=O)n1-c1ccccc1
II. NC(=O)c1cc(-c2ccc3ncnc(Nc4cccc(C(=O)N5CCOCC5)c4)c3c2)cc(C(F)(F)F)c1
Request: Which gives the smaller IC50 number: I or II ? Write down the label attached to your selection.
Result: II
